assay details: Half life in rat brain homogenate at 10 uM
Assay type: ADME, tissue-based
Where a SMILES comes first, the peptide text is derived from it. [ ]: non-standard residue; d: D form. ξ: configuration not given here. Dmt = Cc1cc(O)cc(C)c1C[C@H](N)C(=O)O; ξTiq(1-COOH) = O=C(O)C1NCCc2ccccc21; β3hF = N[C@H](CC(=O)O)Cc1ccccc1
measurement label: half-life at 10 µM

Example entries begin here.
INSERT INTO results (molecule, result) VALUES
  ('Cc1cc(O)cc(C)c1C[C@H](N)C(=O)N1CCc2ccccc2C1C(=O)N[C@@H](Cc1c[nH]c2ccccc12)C(=O)N[C@@H](Cc1ccccc1)[C@H](O)C(N)=O (stereo not given in full)', '> 120 min'),
  ('NC(=O)[C@@H](O)[C@H](Cc1ccccc1)NC(=O)[C@H](Cc1c[nH]c2ccccc12)NC(=O)[C@@H]1CCCN1C(=O)[C@@H](N)Cc1ccc(O)cc1', '3.57 min'),
  ('NC(=O)[C@H](Cc1ccccc1)NC(=O)[C@H](Cc1ccccc1)NC(=O)[C@@H]1CCCN1C(=O)[C@@H](N)Cc1ccc(O)cc1 [ENDOMORPHIN 2]', '0.75 min'),
  ('Cc1cc(O)cc(C)c1C[C@H](N)C(=O)N1CCc2ccccc2C1C(=O)N[C@@H](Cc1ccccc1)C(=O)N[C@@H](Cc1ccccc1)[C@H](O)C(N)=O (stereo not given in full)', '49 min');

Task: For the molecule Cc1cc(O)cc(C)c1C[C@H](N)C(=O)N1CCc2ccccc2C1C(=O)N[C@H](CC(=O)N[C@@H](Cc1ccccc1)C(N)=O)Cc1ccccc1 (stereo partly drawn) (H-[Dmt][ξTiq(1-COOH)][β3hF]F-NH2) , give its reported half-life at 10 µM.
Output: > 120 min

The measurements presented in this section are drawn from ChEMBL document CHEMBL3407426.
